FYI, the data here is from patent US12630552B2.

I'd be grateful if you could share measured log10(IC50) for these entries.
Molecular target: KRAS (aa 1-169) G12C, C51S, C80L, C118S (Homo sapiens, UniProt P01116, C118S/C51S/C80L/G12C)
Construct: The KRAS (aa 1-169) G12C, C51S, C80L, C118S with a His-tag
Sequence (P01116 1-169 isoform P01116-2 G12C/C51S/C80L/C118S): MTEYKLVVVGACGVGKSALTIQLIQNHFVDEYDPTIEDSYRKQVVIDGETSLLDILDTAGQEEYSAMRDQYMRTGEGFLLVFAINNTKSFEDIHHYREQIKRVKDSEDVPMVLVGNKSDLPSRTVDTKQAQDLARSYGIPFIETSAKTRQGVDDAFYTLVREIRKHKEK
Test: KRAS G12C SOS1-mediated nucleotide exchange / GST-cRaf RBD binding FRET assay
Conditions: GDP-loaded KRAS G12C pre-incubated with compound at 24° C. for 3 hrs; SOS1, GTPγS and GST-cRaf RBD added; FRET 665 nm/620 nm
Please note: log10 values; quantity IC50; unit nM.

Prompt line: Hello, please tell me recorded log10(IC50) for this one: C=CC(=O)N1CCN(c2nc(OC[C@@H]3CCCN3C)nc3c2CN(C(=O)c2cccc4cccc(Cl)c24)C3)C[C@@H]1CC#N [Example 30]
Response line: 1.18

Prompt line: Identify measured log10(IC50) associated with C=CC(=O)N1CCN(c2nc(OC[C@@H]3CCCN3C)nc3c2CN(Cc2cccc4ccccc24)C3)C[C@@H]1CC#N [Example 6]
Response line: 1.44

Prompt line: State its log10(IC50) for this molecule: CN(C)C/C=C/C(=O)N1CCN(c2nc(OC[C@@H]3CCCN3C)nc3c2CN(Cc2cccc4ccccc24)C3)CC1 [Example 2]
Response line: 4.66

Prompt line: Respond only with log10(IC50) recorded for C=CC(=O)N1CCN(c2nc(OC[C@@H]3CCCN3C)nc3c2CN(C(=O)c2cccc4cccc(O)c24)C3)C[C@@H]1CC#N [Example 56]
Response line: 2.97

Prompt line: Tell us which log10(IC50) value is on record for C=CC(=O)N1CCN(c2nc(OC[C@@H]3CCCN3C)nc3c2CN(Cc2cccc(C)c2C)C3)C[C@@H]1CC#N [Example 5]
Response line: 1.75

Prompt line: // Input: C=CC(=O)N1CCN(c2nc(OC[C@@H]3CCCN3C)nc3c2CN(C(=O)c2cccc4cccc(Br)c24)C3)C[C@@H]1CC#N [Example 52] . Output its log10(IC50) only.
Response line: 0.93

Prompt line: Answer with reported log10(IC50) of C=CC(=O)N1CCN(c2nc(OC3CCN(C)CC3)nc3c2CN(Cc2cccc4ccccc24)C3)C[C@@H]1CC#N [Example 18]
Response line: 3.19

* * *

Record form. Attribute: IC50. Fill in for each entry.
Biological target: KRAS (aa 1-169) G12C, C51S, C80L, C118S (Homo sapiens, UniProt P01116, C118S/C51S/C80L/G12C)
Construct: The KRAS (aa 1-169) G12C, C51S, C80L, C118S with a His-tag
Experiment: KRAS G12C SOS1-mediated nucleotide exchange / GST-cRaf RBD binding FRET assay
Conditions: GDP-loaded KRAS G12C pre-incubated with compound at 24° C. for 3 hrs; SOS1, GTPγS and GST-cRaf RBD added; FRET 665 nm/620 nm
Numbers only; they are read as nM.

Prompt line: // Input: C=CC(=O)N1CCN(c2nc(OC[C@@H]3CCCN3C)nc3c2CN(Cc2c(O)cccc2F)C3)C[C@@H]1CC#N [Example 23] . Output its IC50 only.
Response line: 28.1

Prompt line: Give recorded IC50. C=CC(=O)N1CCN(c2nc(OCC3CCCN3C)nc3c2CN(C2Cc4cccc5cccc2c45)C3)CC1CC#N (single isomer, unassigned) [Example 15 (P1)]
Response line: 492

Prompt line: Recall and state the measured IC50 for C=CC(=O)N1CCN(c2nc(OC[C@@H]3CCCN3C)nc3c2CN(C2c4ccccc4-c4ccccc42)C3)C[C@@H]1CC#N [Example 40] .
Response line: 1510
